biological target: T1, TCE-22 (anti-CD3 scFv W112A; anti-TROP2 wt); assay: competition ELISA, TCE on captured CD3; Table 41 run, peptide series with ceiling >100 µM
T1 construct: scFv on the Fab heavy chain; also called TCE-22 (W112A)
Where no end group is shown, it is not given here.
observable: IC50 (µM)
Give a bare numeral; the unit µM is implied.

Given VYCGPEFDESVGCA (cysteine pairing not given here; also: biotinylated, site not given here, mask peptide for the CD3 scFv) [Peptide-73] , state its recorded IC50.
39.1
